- assayText: RRCK permeability
- runConditions: MDCK
*1 amine or outer side, *2 acyl side, *3 side chain or, on linkers, in order; H or OH if unused. Where a SMILES comes first, the peptide text is derived from it. [ ]: non-standard residue; d: D form. The star is where a group is joined. NMeAbu(4-morpholino) = CN[C@@H](CCN1CCOCC1)C(=O)O; X1 = CN([C@@H](CCN1CCCCC1)C(=O)[*:2])[*:1]; NMeY = CN[C@@H](Cc1ccc(O)cc1)C(=O)O; NMeI = CC[C@H](C)[C@H](NC)C(=O)O; NMeD = CN[C@@H](CC(=O)O)C(=O)O; dNMeL = CN[C@H](CC(C)C)C(=O)O; NMeK = CN[C@@H](CCCCN)C(=O)O; Piperidide = C1CCN(*)CC1
Hi! Just check whether recovery is below 60%. Below gives Met, equal or above gives Not met.

compound	class
CC(C)C[C@@H]1NC(=O)[C@H](Cc2ccc(O)cc2)N(C)C(=O)[C@H]2CCCN2C(=O)[C@H](CC(C)C)NC(=O)[C@H](CC(=O)O)N(C)C(=O)[C@@H](CC(C)C)N(C)C1=O [Compound 9] (cyclo(L[dNMeL][NMeD]L[dP][NMeY]))	Not met
CC(C)C[C@@H]1NC(=O)[C@H](Cc2ccc(O)cc2)N(C)C(=O)[C@H]2CCCN2C(=O)[C@H](CC(C)C)NC(=O)[C@H](CC(=O)N2CCCCC2)N(C)C(=O)[C@@H](CC(C)C)N(C)C1=O [Compound 14] (cyclo(L[dNMeL][NMeD](Piperidide)L[dP][NMeY]))	Met
CC(C)C[C@@H]1NC(=O)[C@H](Cc2ccc(O)cc2)N(C)C(=O)[C@H]2CCCN2C(=O)[C@H](CC(C)C)NC(=O)[C@H](Cc2ccc(O)cc2)N(C)C(=O)[C@@H](CC(C)C)N(C)C1=O [Compound 6] (cyclo(L[dNMeL][NMeY]L[dP][NMeY]))	Not met
CC(C)C[C@@H]1NC(=O)[C@H](Cc2ccc(O)cc2)N(C)C(=O)[C@H]2CCCN2C(=O)[C@H](CC(C)C)NC(=O)[C@H](CCN2CCCCC2)N(C)C(=O)[C@@H](CC(C)C)N(C)C1=O [Compound 13] (cyclo(L[dNMeL][X1]L[dP][NMeY]))	Met
CC(C)C[C@@H]1NC(=O)[C@H](Cc2ccc(O)cc2)N(C)C(=O)[C@H]2CCCN2C(=O)[C@H](CC(C)C)NC(=O)[C@H](CCCCN)N(C)C(=O)[C@@H](CC(C)C)N(C)C1=O [Compound 10] (cyclo(L[dNMeL][NMeK]L[dP][NMeY]))	Met
CC[C@H](C)[C@H]1C(=O)N[C@@H](CC(C)C)C(=O)N2CCC[C@@H]2C(=O)N(C)[C@@H](Cc2ccc(O)cc2)C(=O)N[C@@H](CC(C)C)C(=O)N(C)[C@H](CC(C)C)C(=O)N1C [Compound 4] (cyclo(L[dNMeL][NMeI]L[dP][NMeY]))	Met
CC(C)C[C@@H]1NC(=O)[C@H](Cc2ccc(O)cc2)N(C)C(=O)[C@H]2CCCN2C(=O)[C@H](CC(C)C)NC(=O)[C@H](CCN2CCOCC2)N(C)C(=O)[C@@H](CC(C)C)N(C)C1=O [Compound 15] (cyclo(L[dNMeL][NMeAbu(4-morpholino)]L[dP][NMeY]))	Met

###

- System: RRCK (Ralph Russ canine kidney cell line)
- assayText: RRCK permeability
- runConditions: MDCK
*1 amine or outer side, *2 acyl side, *3 side chain or, on linkers, in order; H or OH if unused. Where a SMILES comes first, the peptide text is derived from it. [ ]: non-standard residue; d: D form. X1 = CN([C@@H](CCN1CCCCC1)C(=O)[*:2])[*:1]; NMeW = CN[C@@H](Cc1c[nH]c2ccccc12)C(=O)O; NMeY = CN[C@@H](Cc1ccc(O)cc1)C(=O)O; NMeCha = CN[C@@H](CC1CCCCC1)C(=O)O; NMeF = CN[C@@H](Cc1ccccc1)C(=O)O; dNMeL = CN[C@H](CC(C)C)C(=O)O
// values below are reported log Papp(RRCK)
readoutType: log Papp(RRCK)

compound	numericReadout
CC(C)C[C@@H]1NC(=O)[C@H](Cc2ccc(O)cc2)N(C)C(=O)[C@H]2CCCN2C(=O)[C@H](CC(C)C)NC(=O)[C@H](CC2CCCCC2)N(C)C(=O)[C@@H](CC(C)C)N(C)C1=O [Compound 12] (cyclo(L[dNMeL][NMeCha]L[dP][NMeY]))	−6.74
CC(C)C[C@@H]1NC(=O)[C@H](Cc2ccc(O)cc2)N(C)C(=O)[C@H]2CCCN2C(=O)[C@H](CC(C)C)NC(=O)[C@H](CCN2CCCCC2)N(C)C(=O)[C@@H](CC(C)C)N(C)C1=O [Compound 13] (cyclo(L[dNMeL][X1]L[dP][NMeY]))	−6.15
CC(C)C[C@@H]1NC(=O)[C@H](Cc2ccc(O)cc2)N(C)C(=O)[C@H]2CCCN2C(=O)[C@H](CC(C)C)NC(=O)[C@H](Cc2c[nH]c3ccccc23)N(C)C(=O)[C@@H](CC(C)C)N(C)C1=O [Compound 8] (cyclo(L[dNMeL][NMeW]L[dP][NMeY]))	−6.66
CC(C)C[C@@H]1NC(=O)[C@H](Cc2ccc(O)cc2)N(C)C(=O)[C@H]2CCCN2C(=O)[C@H](CC(C)C)NC(=O)[C@H](Cc2ccccc2)N(C)C(=O)[C@@H](CC(C)C)N(C)C1=O [Compound 7] (cyclo(L[dNMeL][NMeF]L[dP][NMeY]))	−5.24

###

- assayText: RRCK permeability
- runConditions: MDCK
Where a SMILES comes first, the peptide text is derived from it. [ ]: non-standard residue; d: D form. The star is where a group is joined. NMeW = CN[C@@H](Cc1c[nH]c2ccccc12)C(=O)O; NMeY = CN[C@@H](Cc1ccc(O)cc1)C(=O)O; NMeCha = CN[C@@H](CC1CCCCC1)C(=O)O; NMeF = CN[C@@H](Cc1ccccc1)C(=O)O; NMeD = CN[C@@H](CC(=O)O)C(=O)O; dNMeL = CN[C@H](CC(C)C)C(=O)O; Morpholide = C1CN(*)CCO1
readoutType: recovery

compound	readoutType	result
CC(C)C[C@@H]1NC(=O)[C@H](Cc2ccc(O)cc2)N(C)C(=O)[C@H]2CCCN2C(=O)[C@H](CC(C)C)NC(=O)[C@H](CC2CCCCC2)N(C)C(=O)[C@@H](CC(C)C)N(C)C1=O [Compound 12] (cyclo(L[dNMeL][NMeCha]L[dP][NMeY]))	recovery	12.2%
CC(C)C[C@@H]1NC(=O)[C@H](Cc2ccc(O)cc2)N(C)C(=O)[C@H]2CCCN2C(=O)[C@H](CC(C)C)NC(=O)[C@H](Cc2c[nH]c3ccccc23)N(C)C(=O)[C@@H](CC(C)C)N(C)C1=O [Compound 8] (cyclo(L[dNMeL][NMeW]L[dP][NMeY]))	recovery	37.1%
CC(C)C[C@@H]1NC(=O)[C@H](Cc2ccc(O)cc2)N(C)C(=O)[C@H]2CCCN2C(=O)[C@H](CC(C)C)NC(=O)[C@H](Cc2ccccc2)N(C)C(=O)[C@@H](CC(C)C)N(C)C1=O [Compound 7] (cyclo(L[dNMeL][NMeF]L[dP][NMeY]))	recovery	59.8%
CC(C)C[C@@H]1NC(=O)[C@H](Cc2ccc(O)cc2)N(C)C(=O)[C@H]2CCCN2C(=O)[C@H](CC(C)C)NC(=O)[C@H](CC(=O)N2CCOCC2)N(C)C(=O)[C@@H](CC(C)C)N(C)C1=O [Compound 16] (cyclo(L[dNMeL][NMeD](Morpholide)L[dP][NMeY]))	recovery	47.9%

###

Reported log Papp(RRCK) values follow for various compounds
- Tested on: RRCK (Ralph Russ canine kidney cell line)
- assayText: RRCK permeability
- runConditions: MDCK
Where a SMILES comes first, the peptide text is derived from it. [ ]: non-standard residue; d: D form. The star is where a group is joined. NMeY = CN[C@@H](Cc1ccc(O)cc1)C(=O)O; NMeD = CN[C@@H](CC(=O)O)C(=O)O; dNMeL = CN[C@H](CC(C)C)C(=O)O; NMeS = CN[C@@H](CO)C(=O)O; Morpholide = C1CN(*)CCO1

compound	log Papp(RRCK)
CC(C)C[C@@H]1NC(=O)[C@H](Cc2ccc(O)cc2)N(C)C(=O)[C@H]2CCCN2C(=O)[C@H](CC(C)C)NC(=O)[C@H](CC(=O)N2CCOCC2)N(C)C(=O)[C@@H](CC(C)C)N(C)C1=O [Compound 16] (cyclo(L[dNMeL][NMeD](Morpholide)L[dP][NMeY]))	−6.20
CC(C)C[C@@H]1NC(=O)[C@H](Cc2ccc(O)cc2)N(C)C(=O)[C@H]2CCCN2C(=O)[C@H](CC(C)C)NC(=O)[C@H](CO)N(C)C(=O)[C@@H](CC(C)C)N(C)C1=O [Compound 2] (cyclo(L[dNMeL][NMeS]L[dP][NMeY]))	−5.81
